Tested system: calcium channel (3H-nitrendipine binding, heart membranes) (Oryctolagus cuniculus, UniProt P15381)
Construct: from tissue; host or cells: rabbit heart membrane preparation
Sequence (P15381 whole entry, other chains not shown): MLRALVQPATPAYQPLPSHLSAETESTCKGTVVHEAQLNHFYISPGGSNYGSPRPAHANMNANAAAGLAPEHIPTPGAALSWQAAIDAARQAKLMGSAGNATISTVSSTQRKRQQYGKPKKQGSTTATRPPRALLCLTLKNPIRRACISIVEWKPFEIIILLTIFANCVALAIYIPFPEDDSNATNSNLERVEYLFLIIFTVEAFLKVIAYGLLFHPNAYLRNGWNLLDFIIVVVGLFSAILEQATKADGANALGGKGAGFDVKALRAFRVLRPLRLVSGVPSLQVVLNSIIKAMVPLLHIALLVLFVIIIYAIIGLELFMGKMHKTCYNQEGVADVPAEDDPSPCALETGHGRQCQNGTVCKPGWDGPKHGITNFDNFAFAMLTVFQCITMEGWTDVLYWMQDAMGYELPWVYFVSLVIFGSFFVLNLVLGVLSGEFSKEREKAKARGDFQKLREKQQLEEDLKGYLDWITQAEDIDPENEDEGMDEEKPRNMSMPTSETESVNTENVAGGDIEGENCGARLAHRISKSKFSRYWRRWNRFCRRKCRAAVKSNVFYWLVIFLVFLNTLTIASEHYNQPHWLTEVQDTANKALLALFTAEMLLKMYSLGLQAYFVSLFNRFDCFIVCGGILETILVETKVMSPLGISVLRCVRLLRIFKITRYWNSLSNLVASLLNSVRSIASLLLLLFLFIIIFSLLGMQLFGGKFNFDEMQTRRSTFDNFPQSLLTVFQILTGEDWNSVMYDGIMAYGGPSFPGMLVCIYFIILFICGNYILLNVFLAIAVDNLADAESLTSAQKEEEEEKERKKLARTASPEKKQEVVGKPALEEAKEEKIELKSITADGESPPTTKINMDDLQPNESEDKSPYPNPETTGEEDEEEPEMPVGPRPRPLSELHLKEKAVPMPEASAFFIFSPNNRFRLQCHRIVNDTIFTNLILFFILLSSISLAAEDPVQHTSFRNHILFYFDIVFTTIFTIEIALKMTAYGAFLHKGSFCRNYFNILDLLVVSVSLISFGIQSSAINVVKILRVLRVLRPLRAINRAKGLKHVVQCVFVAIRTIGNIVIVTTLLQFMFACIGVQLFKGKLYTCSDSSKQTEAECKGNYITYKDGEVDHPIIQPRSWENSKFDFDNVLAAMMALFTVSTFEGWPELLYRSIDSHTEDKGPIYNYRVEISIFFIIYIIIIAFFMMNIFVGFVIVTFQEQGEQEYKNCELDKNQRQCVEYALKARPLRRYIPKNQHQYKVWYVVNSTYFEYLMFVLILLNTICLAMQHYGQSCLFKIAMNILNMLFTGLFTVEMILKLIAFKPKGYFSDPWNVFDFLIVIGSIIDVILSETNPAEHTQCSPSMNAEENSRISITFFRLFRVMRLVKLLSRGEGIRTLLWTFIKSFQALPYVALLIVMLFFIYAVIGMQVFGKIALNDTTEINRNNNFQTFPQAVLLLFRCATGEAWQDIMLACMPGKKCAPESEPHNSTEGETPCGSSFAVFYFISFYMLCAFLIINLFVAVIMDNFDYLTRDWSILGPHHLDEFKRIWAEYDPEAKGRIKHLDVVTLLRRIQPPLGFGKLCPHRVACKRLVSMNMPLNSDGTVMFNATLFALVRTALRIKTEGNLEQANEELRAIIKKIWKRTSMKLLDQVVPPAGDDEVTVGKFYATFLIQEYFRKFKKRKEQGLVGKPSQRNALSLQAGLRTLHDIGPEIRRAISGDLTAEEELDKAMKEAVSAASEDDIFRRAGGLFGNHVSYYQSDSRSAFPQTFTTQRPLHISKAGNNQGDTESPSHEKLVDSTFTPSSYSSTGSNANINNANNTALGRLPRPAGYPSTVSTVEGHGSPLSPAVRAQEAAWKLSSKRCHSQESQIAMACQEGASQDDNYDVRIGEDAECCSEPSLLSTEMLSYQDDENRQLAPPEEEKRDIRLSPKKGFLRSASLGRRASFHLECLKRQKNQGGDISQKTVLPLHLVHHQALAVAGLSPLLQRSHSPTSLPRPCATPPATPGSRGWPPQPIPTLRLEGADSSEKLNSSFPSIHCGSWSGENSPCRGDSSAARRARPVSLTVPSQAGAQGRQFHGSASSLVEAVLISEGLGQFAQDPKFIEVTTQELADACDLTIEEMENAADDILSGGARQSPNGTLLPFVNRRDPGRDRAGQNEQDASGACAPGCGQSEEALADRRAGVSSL
Sequence (P13806 27-960 partner limits assumed, other chains not shown): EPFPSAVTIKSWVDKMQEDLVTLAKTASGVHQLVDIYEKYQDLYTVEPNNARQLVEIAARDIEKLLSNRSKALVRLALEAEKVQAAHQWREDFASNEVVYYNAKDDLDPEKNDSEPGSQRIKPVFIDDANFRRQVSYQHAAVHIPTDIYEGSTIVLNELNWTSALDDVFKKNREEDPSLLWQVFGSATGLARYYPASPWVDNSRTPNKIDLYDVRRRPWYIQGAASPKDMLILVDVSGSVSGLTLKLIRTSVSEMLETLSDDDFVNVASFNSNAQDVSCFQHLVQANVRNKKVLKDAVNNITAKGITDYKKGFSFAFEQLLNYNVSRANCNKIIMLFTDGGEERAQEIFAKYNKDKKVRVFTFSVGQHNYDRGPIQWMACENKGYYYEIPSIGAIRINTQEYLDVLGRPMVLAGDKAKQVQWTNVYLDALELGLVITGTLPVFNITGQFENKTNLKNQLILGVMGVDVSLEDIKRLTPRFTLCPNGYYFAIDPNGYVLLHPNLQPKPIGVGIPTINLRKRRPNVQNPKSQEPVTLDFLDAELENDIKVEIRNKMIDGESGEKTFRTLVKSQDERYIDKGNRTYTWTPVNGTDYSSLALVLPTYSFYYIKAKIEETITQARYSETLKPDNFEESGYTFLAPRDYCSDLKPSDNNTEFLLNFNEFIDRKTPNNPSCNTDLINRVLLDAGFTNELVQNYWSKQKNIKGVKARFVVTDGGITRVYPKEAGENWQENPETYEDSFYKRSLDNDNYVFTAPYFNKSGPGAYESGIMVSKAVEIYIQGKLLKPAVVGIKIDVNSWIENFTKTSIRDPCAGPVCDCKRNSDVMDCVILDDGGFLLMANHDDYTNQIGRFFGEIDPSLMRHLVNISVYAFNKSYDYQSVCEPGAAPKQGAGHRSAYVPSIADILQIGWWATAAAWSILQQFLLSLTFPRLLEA
Sequence (P13806 961-1106 partner limits assumed, other chains not shown): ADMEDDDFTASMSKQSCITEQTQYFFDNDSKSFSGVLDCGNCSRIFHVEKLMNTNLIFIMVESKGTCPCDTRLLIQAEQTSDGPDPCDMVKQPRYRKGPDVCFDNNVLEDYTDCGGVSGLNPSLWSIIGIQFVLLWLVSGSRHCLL
Procedure details: Assay for inhibition of nitrendipine binding (calcium channel antagonist activity)
Conditions: 3H-nitrendipine 0.05-0.50 nM, rabbit heart membranes, 90 minutes at 4° C.
Reported endpoint: IC50 (nM)

Use the examples below as a reference point.
Ask: Consider the molecule shown here: CC1=C(C(=O)OCCN(C)Cc2cccs2)C(c2ccccc2Cl)C2=C(CCCCS2(=O)=O)N1 (stereo not shown) [Compound 14] What is its recorded IC50?
Reply: 15

Ask: Consider the molecule shown here: CC1=C(C(=O)OCCN(C)Cc2ccsc2)C(c2c(O)cccc2Cl)C2=C(CCCCS2(=O)=O)N1 (stereo not shown) [Compound 25] What is its recorded IC50?
Reply: 815

Ask: Consider the molecule shown here: CC1=C(C(=O)OCCN(C)Cc2ccsc2)C(c2cccc([N+](=O)[O-])c2)C2=C(CCCCS2(=O)=O)N1 (stereo not shown) [Compound 26] What is its recorded IC50?
Reply: 51

(A) CN(CCOC(=O)C1=C(c2ccccc2)NC2=C(C1c1cccc(Cl)c1)S(=O)(=O)CCCC2)Cc1cccs1 (stereo not shown) [Compound 19]
(B) CC1=C(C(=O)OCCN(C)Cc2cccs2)C(c2c(F)c(F)c(F)c(F)c2F)C2=C(CCCCS2(=O)=O)N1 (stereo not shown) [Compound 12]
(C) CCOC(=O)C1=C(c2ccccc2)NC2=C(C1c1cccc([N+](=O)[O-])c1)S(=O)(=O)CCCC2 (stereo not shown) [Compound 11]
(D) CCOC(=O)C1=C(c2cccs2)NC2=C(C1c1cccc(Cl)c1)S(=O)(=O)CCCC2 (stereo not shown) [Compound 16]
Ask: Could you please sort these 4 entries by IC50 from high to low? Write out the labels following the order that was asked for.
Reply: C, D, A, B
(C: 6950 nM, D: 2300 nM, A: 1290 nM, B: 5.9 nM)

###

Tested system: calcium channel (3H-nitrendipine binding, heart membranes) (Oryctolagus cuniculus)
Construct: from tissue; host or cells: rabbit heart membrane preparation
Procedure details: Assay for inhibition of nitrendipine binding (calcium channel antagonist activity)
Conditions: 3H-nitrendipine 0.05-0.50 nM, rabbit heart membranes, 90 minutes at 4° C.
Reported endpoint: IC50 (nM)

Ask: Consider the compound shown here: CCOC(=O)C1=C(c2ccccc2)NC2=C(C1c1ccc(Cl)cc1)S(=O)(=O)CCCC2 (stereo not shown) [Compound 1] What is its recorded IC50?
Reply: 2000

(P) CCOC(=O)C1=C(c2cccnc2)NC2=C(C1c1cccc(Cl)c1)S(=O)(=O)CCCC2 (stereo not shown) [Compound 22]
(Q) CN(CCOC(=O)C1=C(c2ccccc2)NC2=C(C1c1cccc([N+](=O)[O-])c1)S(=O)(=O)CCCC2)Cc1cccs1 (stereo not shown) [Compound 18]
(R) CC1=C(C(=O)OCCN(C)Cc2cccs2)C(c2cccc([N+](=O)[O-])c2)C2=C(CCCCS2(=O)=O)N1 (stereo not shown) [Compound 13]
Ask: Sort entries by IC50 from minimum to maximum value. Write out the labels following the order that was asked for.
Reply: R, P, Q
(R: 7.1 nM, P: 2000 nM, Q: 26000 nM)
